meta.source: ChEMBL document CHEMBL1938300

System: Rattus norvegicus
Assay: AUC in Sprague-Dawley rat at 5 mg/kg, po by HPLC
Format: ADME, organism-based, Plasma
Parameters: dose 5 mg/kg, route oral
Conditions: in vivo
Listed here are compounds together with their documented AUC.
Give the value, in units of ng·h/mL, as a plain number.

Past entries and their recorded results:
CNC(=O)c1cccc(F)c1Nc1nc(Nc2ccc3c(c2)NC(=O)[C@H](NC(=O)N2CCCC2)CC3(C)C)ncc1Cl	5850
CNC(=O)c1cccc(F)c1Nc1nc(Nc2ccc3c(c2)NC(=O)CCC3(C)C)ncc1Cl	46

IN: Give the observed AUC of CNC(=O)c1cccc(F)c1Nc1nc(Nc2ccc3c(c2)NC(=O)C(NC(=O)CN(C)C)CC3(C)C)ncc1Cl.O=C(O)C(F)(F)F (racemic) for Rattus norvegicus.
OUT: 61

IN: With Rattus norvegicus as the test system, provide measured AUC for this compound: CNC(=O)c1cccc(F)c1Nc1nc(Nc2ccc3c(c2)NC(=O)C(NC(=O)OC)CC3(C)C)ncc1Cl.O=C(O)C(F)(F)F (racemic)
OUT: 987

====

Experiment: Solubility of the compound
Format: physicochemical
Metric name: solubility

CNC(=O)c1cccc(F)c1Nc1nc(Nc2ccc3c(c2)NC(=O)C(N)CC3(C)C)ncc1Cl (racemic)	> 120 µg/mL

IN: Supply measured solubility of CNC(=O)c1cccc(F)c1Nc1nc(Nc2ccc3c(c2)NC(=O)C(NC(=O)C(F)(F)F)CC3(C)C)ncc1Cl.O=C(O)C(F)(F)F (racemic) in your reply.
OUT: 8 µg/mL

IN: Tell me its solubility given CNC(=O)c1cccc(F)c1Nc1nc(Nc2ccc3c(c2)NC(=O)CCC3(C)C)ncc1Cl as the entry.
OUT: 21 µg/mL

====

# AUC per record follows
System: Rattus norvegicus
Test: AUC in Sprague-Dawley rat at 1 mg/kg, iv by HPLC
Assay type: ADME, organism-based, Plasma
Set-up: dose 1 mg/kg, route intravenous
Settings: in vivo
Reply numerically in ng·h/mL, unit not repeated.

Solved cases below.
CNC(=O)c1cccc(F)c1Nc1nc(Nc2ccc3c(c2)NC(=O)C(NC(C)=O)CC3(C)C)ncc1Cl.O=C(O)C(F)(F)F (racemic)	654
CNC(=O)c1cccc(F)c1Nc1nc(Nc2ccc3c(c2)NC(=O)C(NC(=O)COC)CC3(C)C)ncc1Cl.O=C(O)C(F)(F)F (racemic)	846

The record that follows has no AUC shown yet.
IN: Complete the entry with AUC for CNC(=O)c1cccc(F)c1Nc1nc(Nc2ccc3c(c2)NC(=O)C(NC(=O)CN(C)C)CC3(C)C)ncc1Cl.O=C(O)C(F)(F)F (racemic)
OUT: 825

====

Items are presented alongside their recorded AUC.
System: Rattus norvegicus
Assay: AUC in Sprague-Dawley rat at 1 mg/kg, iv by HPLC
Format: ADME, organism-based, Plasma
Design: dose 1 mg/kg, route intravenous
Details: in vivo
Hi! Could you send only the number? It should be in ng·h/mL, unit omitted.

Solved cases below.
CNC(=O)c1cccc(F)c1Nc1nc(Nc2ccc3c(c2)NC(=O)[C@@H](NC(=O)N2CCCC2)CC3(C)C)ncc1Cl	3190
CNC(=O)c1cccc(F)c1Nc1nc(Nc2ccc3c(c2)NC(=O)[C@H](NC(=O)N2CCCC2)CC3(C)C)ncc1Cl	3460
CNC(=O)c1cccc(F)c1Nc1nc(Nc2ccc3c(c2)NC(=O)C(NC(=O)OC)CC3(C)C)ncc1Cl.O=C(O)C(F)(F)F (racemic)	1200
CNC(=O)c1cccc(F)c1Nc1nc(Nc2ccc3c(c2)NC(=O)C(NC(=O)N2CCCC2)CC3(C)C)ncc1Cl.O=C(O)C(F)(F)F (racemic; form 1)	3420
CNC(=O)c1cccc(F)c1Nc1nc(Nc2ccc3c(c2)NC(=O)C(N)CC3(C)C)ncc1Cl (racemic)	787

IN: Supply reported AUC belonging to this compound: CNC(=O)c1cccc(F)c1Nc1nc(Nc2ccc3c(c2)NC(=O)C(NC(=O)C(F)(F)F)CC3(C)C)ncc1Cl.O=C(O)C(F)(F)F (racemic)
OUT: 1310

IN: Report AUC for CNC(=O)c1cccc(F)c1Nc1nc(Nc2ccc3c(c2)NC(=O)CCC3(C)C)ncc1Cl
OUT: 1060

IN: Tell me its AUC given CNC(=O)c1cccc(F)c1Nc1nc(Nc2ccc3c(c2)NC(=O)C(NC(=O)N2CCCC2)CC3(C)C)ncc1Cl (racemic; form 2) as the entry.
OUT: 2330

====

Experiment: Oral bioavailability Sprague-Dawley rat at 5 mg/kg by HPLC
Format: ADME, organism-based
Settings: in vivo
Metric name: bioavailability (%)
// return numeric value only (unit: %, not printed)

IN: For CNC(=O)c1cccc(F)c1Nc1nc(Nc2ccc3c(c2)NC(=O)C(NC(=O)OC)CC3(C)C)ncc1Cl.O=C(O)C(F)(F)F (racemic) , write its bioavailability.
OUT: 16

IN: Specify measured bioavailability for CNC(=O)c1cccc(F)c1Nc1nc(Nc2ccc3c(c2)NC(=O)[C@H](NC(=O)N2CCCC2)CC3(C)C)ncc1Cl .
OUT: 34

IN: Give recorded bioavailability. CNC(=O)c1cccc(F)c1Nc1nc(Nc2ccc3c(c2)NC(=O)[C@@H](NC(=O)N2CCCC2)CC3(C)C)ncc1Cl
OUT: 35

IN: Kindly indicate its recorded bioavailability. Item: CNC(=O)c1cccc(F)c1Nc1nc(Nc2ccc3c(c2)NC(=O)C(NC(=O)C(F)(F)F)CC3(C)C)ncc1Cl.O=C(O)C(F)(F)F (racemic)
OUT: 9

IN: Identify measured bioavailability corresponding to CNC(=O)c1cccc(F)c1Nc1nc(Nc2ccc3c(c2)NC(=O)C(NC(=O)N2CCCC2)CC3(C)C)ncc1Cl (racemic; form 2)
OUT: 40

IN: Consider the compound CCN1C(=O)CCC(C)(C)c2ccc(Nc3ncc(Cl)c(Nc4c(F)cccc4C(=O)NC)n3)cc21 and give its recorded bioavailability.
OUT: 0

IN: Quickly give me recorded bioavailability for CNC(=O)c1cccc(F)c1Nc1nc(Nc2ccc3c(c2)NC(=O)C(NC(=O)CN(C)C)CC3(C)C)ncc1Cl.O=C(O)C(F)(F)F (racemic)
OUT: 1

IN: Look up and report measured bioavailability for this entry: CNC(=O)c1cccc(F)c1Nc1nc(Nc2ccc3c(c2)NC(=O)CCC3(C)C)ncc1Cl
OUT: 1

IN: Give me measured bioavailability, please, for this compound: CNC(=O)c1cccc(F)c1Nc1nc(Nc2ccc3c(c2)NC(=O)C(NC(=O)N2CCCC2)CC3(C)C)ncc1Cl.O=C(O)C(F)(F)F (racemic; form 1)
OUT: 15

IN: State, in one line, measured bioavailability of CNC(=O)c1cccc(F)c1Nc1nc(Nc2ccc3c(c2)NC(=O)C(NC(C)=O)CC3(C)C)ncc1Cl.O=C(O)C(F)(F)F (racemic)
OUT: 2

IN: Answer with the recorded bioavailability for the compound listed here: CNC(=O)c1cccc(F)c1Nc1nc(Nc2ccc3c(c2)NC(=O)C(NC(=O)COC)CC3(C)C)ncc1Cl.O=C(O)C(F)(F)F (racemic)
OUT: 12

====

Assay: Volume of distribution in Sprague-Dawley rat by HPLC
Format: ADME, organism-based
Conditions: in vivo
Measured Vd accompanies every entry in the list below.
Enter your answer as a number in L/kg; do not include the unit.

Illustrative cases are given below, each with its answer.
CNC(=O)c1cccc(F)c1Nc1nc(Nc2ccc3c(c2)NC(=O)C(NC(=O)COC)CC3(C)C)ncc1Cl.O=C(O)C(F)(F)F (racemic)	1.3
CNC(=O)c1cccc(F)c1Nc1nc(Nc2ccc3c(c2)NC(=O)C(NC(C)=O)CC3(C)C)ncc1Cl.O=C(O)C(F)(F)F (racemic)	2
CNC(=O)c1cccc(F)c1Nc1nc(Nc2ccc3c(c2)NC(=O)C(N)CC3(C)C)ncc1Cl (racemic)	4.6

# context switch: different compound, same Vd
IN: Return Vd (reported value) for this compound: CNC(=O)c1cccc(F)c1Nc1nc(Nc2ccc3c(c2)NC(=O)C(NC(=O)OC)CC3(C)C)ncc1Cl.O=C(O)C(F)(F)F (racemic)
OUT: 1

====

Assay: Clearance in Sprague-Dawley rat by HPLC
Assay type: ADME, organism-based
Settings: in vivo
Item-by-item account of clearance
Form entry: value (L/h/kg) — number only.

Below: 9 compounds and their reported clearance.
CNC(=O)c1cccc(F)c1Nc1nc(Nc2ccc3c(c2)NC(=O)CCC3(C)C)ncc1Cl	0.96
CNC(=O)c1cccc(F)c1Nc1nc(Nc2ccc3c(c2)NC(=O)[C@H](NC(=O)N2CCCC2)CC3(C)C)ncc1Cl	0.3
CNC(=O)c1cccc(F)c1Nc1nc(Nc2ccc3c(c2)NC(=O)C(NC(=O)C(F)(F)F)CC3(C)C)ncc1Cl.O=C(O)C(F)(F)F (racemic)	0.96
CNC(=O)c1cccc(F)c1Nc1nc(Nc2ccc3c(c2)NC(=O)C(NC(=O)N2CCCC2)CC3(C)C)ncc1Cl (racemic; form 2)	0.48
CNC(=O)c1cccc(F)c1Nc1nc(Nc2ccc3c(c2)NC(=O)C(NC(=O)CN(C)C)CC3(C)C)ncc1Cl.O=C(O)C(F)(F)F (racemic)	1.92
CNC(=O)c1cccc(F)c1Nc1nc(Nc2ccc3c(c2)NC(=O)C(NC(=O)COC)CC3(C)C)ncc1Cl.O=C(O)C(F)(F)F (racemic)	1.2
CNC(=O)c1cccc(F)c1Nc1nc(Nc2ccc3c(c2)NC(=O)C(NC(C)=O)CC3(C)C)ncc1Cl.O=C(O)C(F)(F)F (racemic)	1.98
CNC(=O)c1cccc(F)c1Nc1nc(Nc2ccc3c(c2)NC(=O)C(NC(=O)OC)CC3(C)C)ncc1Cl.O=C(O)C(F)(F)F (racemic)	0.9
CNC(=O)c1cccc(F)c1Nc1nc(Nc2ccc3c(c2)NC(=O)C(NC(=O)N2CCCC2)CC3(C)C)ncc1Cl.O=C(O)C(F)(F)F (racemic; form 1)	0.36

We next turn to a different compound, shown below.
IN: Please supply the value of reported clearance for the item CNC(=O)c1cccc(F)c1Nc1nc(Nc2ccc3c(c2)NC(=O)[C@@H](NC(=O)N2CCCC2)CC3(C)C)ncc1Cl
OUT: 0.3
